Test system: Lymphs
Assay: Peptidases to distinguish leukemia from non-leukemia, lymphocytes
Format: cell-based, human
Design: unit not given here
Settings: N202 normal
measure: enzyme activity
Respond numerically, and do not add a unit to the figure.

molecule	measured-target	enzyme activity
O=C1OC2(c3ccc(NC(=O)[C@@H]4CCCN4)cc3Oc3cc(NC(=O)[C@@H]4CCCN4)ccc32)c2ccccc21 [PRO, (H--L--Pro)2 Rho 110-2TFA]	Lymphs	0.89
NCC(=O)Nc1ccc2c(c1)Oc1cc(NC(=O)CN)ccc1C21OC(=O)c2ccccc21	Lymphs	44.55
NC(=O)CC[C@H](N)C(=O)N[C@@H](CO)C(=O)Nc1ccc2c(c1)Oc1cc(NC(=O)[C@H](CO)NC(=O)[C@@H](N)CCC(N)=O)ccc1C21OC(=O)c2ccccc21 [QS, (H--L--Gln--Ser)2 Rho 110-2TFA]	Lymphs	0.01
CC(C)C[C@H](N)C(=O)NCC(=O)Nc1ccc2c(c1)Oc1cc(NC(=O)CNC(=O)[C@@H](N)CC(C)C)ccc1C21OC(=O)c2ccccc21	Lymphs	1.28
NCCCC[C@H](N)C(=O)Nc1ccc2c(c1)Oc1cc(NC(=O)[C@@H](N)CCCCN)ccc1C21OC(=O)c2ccccc21 [LYS, (H--L--Lys)2 Rho 110-4TFA]	Lymphs	0.71

Lab note: C[C@@H](O)[C@H](N)C(=O)N1CCC[C@H]1C(=O)Nc1ccc2c(c1)Oc1cc(NC(=O)[C@@H]3CCCN3C(=O)[C@@H](N)[C@@H](C)O)ccc1C21OC(=O)c2ccccc21 gave enzyme activity of 2.49

enzyme activity measured on C[C@H](N)C(=O)Nc1ccc2c(c1)Oc1cc(NC(=O)[C@H](C)N)ccc1C21OC(=O)c2ccccc21 = 118.37

The recorded enzyme activity for NCC(=O)N1CCC[C@H]1C(=O)Nc1ccc2c(c1)Oc1cc(NC(=O)[C@@H]3CCCN3C(=O)CN)ccc1C21OC(=O)c2ccccc21 is 6.61

The molecule listed as CC(C)[C@H](N)C(=O)N[C@@H](CO)C(=O)Nc1ccc2c(c1)Oc1cc(NC(=O)[C@H](CO)NC(=O)[C@@H](N)C(C)C)ccc1C21OC(=O)c2ccccc21 [VS, (H--L--Val--Ser)2 Rho 110-2TFA] has a reported enzyme activity of 0.04
